# assayed_system: T1, human IL-2Rβ (human, UniProt P14784 27-240, limits assumed)
# T1 construct: Recombinant human IL-2Rβ protein, coated on ELISA plates or immobilized on a CM5 chip; also called hu IL-2R; interleukin 2 receptor β-chain
# T1 sequence: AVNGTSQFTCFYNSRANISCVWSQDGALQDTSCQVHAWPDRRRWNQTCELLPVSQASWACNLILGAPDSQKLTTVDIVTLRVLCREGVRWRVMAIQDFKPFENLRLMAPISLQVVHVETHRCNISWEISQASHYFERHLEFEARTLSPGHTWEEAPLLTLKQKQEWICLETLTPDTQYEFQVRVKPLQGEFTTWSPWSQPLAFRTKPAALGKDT
# protocol_text: SPR off-rate ranking of P.E., human IL-2Rβ immobilized
Catalogue of koff values

# binder, koff, s⁻¹
records = [
    ("FJ1427_P035MP06F02 (VHH, Soluble VHH in periplasmic extract (P.E.); also called Clone nr) VHH: QVQLQESGGGLVQAGGSLRLSCAASGDVFVRYTMAWFRQAPGKEREFVASVTDSGRTTDYVDSVKGRFTVSRDNAKNTVYLQMNALKPEDTAVYYCAANTDYFQIKSLDLNTWGQGTQVTVSS", 0.00037),
    ("FJ1427_P035MP06B04 (VHH, Soluble VHH in periplasmic extract (P.E.); also called Clone nr) VHH: QVQLVESGGGLVQAGGSLRLSCAVSGDVFVRYTMAWFRQAPGKEREFVASVTDSGRTTEYVDSVKGRFTVSRDNAKNTAYLQMNNLKPEDTAVYYCAANTDYFQIRSLDLNTWGQGTQVTVSS", 0.000188),
]
